- SYSTEM UNDER TEST: beta-catenin/TCF4 engagement (Homo sapiens, UniProt P35222)
- Construct: expressed in transfected cells; host or cells: HEK293
- Sequence (P35222 1-781): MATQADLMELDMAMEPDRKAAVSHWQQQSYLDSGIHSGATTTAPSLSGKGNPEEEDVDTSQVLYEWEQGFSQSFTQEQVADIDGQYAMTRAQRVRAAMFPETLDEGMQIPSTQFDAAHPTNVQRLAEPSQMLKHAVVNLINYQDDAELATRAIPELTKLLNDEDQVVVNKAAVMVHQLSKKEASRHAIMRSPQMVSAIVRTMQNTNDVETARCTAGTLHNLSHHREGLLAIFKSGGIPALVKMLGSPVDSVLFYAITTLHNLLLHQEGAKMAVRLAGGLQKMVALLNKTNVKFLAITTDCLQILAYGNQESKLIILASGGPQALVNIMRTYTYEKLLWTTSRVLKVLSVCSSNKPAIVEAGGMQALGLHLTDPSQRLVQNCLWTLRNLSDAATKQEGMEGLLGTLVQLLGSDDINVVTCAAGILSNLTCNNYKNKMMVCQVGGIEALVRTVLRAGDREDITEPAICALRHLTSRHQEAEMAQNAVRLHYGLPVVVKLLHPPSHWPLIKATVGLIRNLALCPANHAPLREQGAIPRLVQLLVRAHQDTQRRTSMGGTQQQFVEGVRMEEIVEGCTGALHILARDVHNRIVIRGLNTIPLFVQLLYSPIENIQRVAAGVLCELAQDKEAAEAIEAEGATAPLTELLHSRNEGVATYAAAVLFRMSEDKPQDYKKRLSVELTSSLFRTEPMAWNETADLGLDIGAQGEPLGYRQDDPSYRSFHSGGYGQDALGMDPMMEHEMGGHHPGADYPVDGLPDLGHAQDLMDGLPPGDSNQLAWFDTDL
- ASSAY TEXT: Nano-BRET target engagement assay (B-cat-Halo & TCF4-Luc in HEK293 cells)
- Assay type: cell-based
- MEASUREMENT CONDITIONS: absolute IC50; read-out: NanoBRET Abs IC50
MEASURED PARAMETER: pIC50
// field semantics: pIC50 = negative decimal log of concentration (mol/L)

Fill in: pIC50 of CC(=O)N1CCC[C@]12CC=CCCCC1(CCCC=CCCCOC(=O)N3CC[C@@](C(=O)N[C@@H](Cc4ccccc4C(F)(F)F)C(=O)N[C@@H](Cc4csc5ccccc45)C(=O)N[C@@H](CCC(N)=O)C(=O)N[C@@H](CC(C)C)C(=O)N[C@@H](C)C(N)=O)(C3)NC(=O)[C@H](CC(C)C)NC(=O)[C@H](Cc3ccccc3)NC(=O)[C@H](C)NC(=O)[C@H](C)NC(=O)[C@H](Cc3cccc(C(=O)O)c3)NC(=O)[C@H](CC(=O)O)NC1=O)NC(=O)[C@H](CC(C)(C)C)NC(=O)[C@H](CC(=O)O)NC2=O (stereo partly shown) is ___
5.32

----------
- SYSTEM UNDER TEST: full-length beta-Catenin (Uniprot ID P35222) (Homo sapiens)
- Construct: 10 nM full-length beta-Catenin (Uniprot ID P35222)
- ASSAY TEXT: Fluorescence polarization IC50 (beta-catenin / 5FAM-TCF4 10-53 competition)
- Format: binding
- MEASUREMENT CONDITIONS: fluorescence polarization; read-out: beta-Catenin FP IC50
Doc: threshold 300 nM (exclusive). Items with IC50 beneath it return 1; others return 0.

Solved cases (4 shown):
COMPOUND	GROUP LABEL
CC[C@H](C)[C@@H]1NC(=O)[C@H](CC(=O)O)NC(=O)[C@]2(CC=CCCCC3(CCCC=CCCCCCC[C@@](C)(C(=O)N[C@@H](Cc4ccccc4)C(=O)N[C@@H](Cc4csc5ccccc45)C(=O)N[C@@H](CCC(N)=O)C(N)=O)NC(=O)[C@H](CCC(N)=O)NC(=O)[C@H](Cc4ccccc4)NC(=O)[C@H](C)NC(=O)[C@H](C)NC(=O)[C@H](Cc4ccc(C(=O)O)cc4)NC(=O)[C@H](CC(=O)O)NC3=O)NC1=O)CCCN2C(C)=O (some centres unmarked) [I-607]	1
CCSSCCOC(=O)C[C@@H]1NC(=O)C2(CCCC=CCCCOC(=O)N3CC[C@@](C(=O)N[C@@H](Cc4ccsc4)C(=O)N[C@@H](Cc4csc5ccccc45)C(=O)N[C@@H](CCC(N)=O)C(N)=O)(C3)NC(=O)[C@H](CC(C)C)NC(=O)[C@H](Cc3ccccc3)NC(=O)[C@H](C)NC(=O)[C@H](C)NC(=O)[C@H](CC(=O)O)NC1=O)CCCC=CC[C@]1(CCCN1C(C)=O)C(=O)N[C@@H](CC(=O)O)C(=O)N[C@@H](CC(C)(C)C)C(=O)N2 (some centres unmarked)	0
CC(=O)N[C@]1(C)CCCCCCC2(CCCCCCCCOC(=O)N3CC[C@@](C(=O)N[C@@H](Cc4ccccc4C(F)(F)F)C(=O)N[C@@H](Cc4csc5ccccc45)C(=O)N[C@@H](CCC(N)=O)C(N)=O)(C3)NC(=O)[C@H](CC(C)C)NC(=O)[C@H](Cc3ccccc3)NC(=O)[C@H](C)NC(=O)[C@H](C)NC(=O)[C@H](Cc3cccc(C(=O)O)c3)NC(=O)[C@H](CC(=O)O)NC2=O)NC(=O)[C@H](CC(C)(C)C)NC(=O)[C@H](CC(=O)O)NC1=O (some centres unmarked)	0
CC(=O)N1CCC[C@]12CC=CCCCC1(CCCC=CCCCOC(=O)N3CC[C@@](C(=O)N[C@@H](Cc4ccsc4)C(=O)N[C@@H](Cc4csc5ccccc45)C(=O)N[C@@H](CCC(N)=O)C(N)=O)(C3)NC(=O)[C@H](CC(N)=O)NC(=O)[C@H](Cc3ccccc3)NC(=O)[C@H](C)NC(=O)[C@H](C)NC(=O)[C@H](CN(CC(=O)O)CC(F)(F)F)NC(=O)[C@H](CC(=O)O)NC1=O)NC(=O)[C@H](CC(C)(C)C)NC(=O)[C@H](CC(=O)O)N(C)C2=O (some centres unmarked)	0

Could you please tell me whether IC50 recorded for CC(=O)N1CCC[C@]12CC=CCCCC1(CCCC=CCCCOC(=O)N3CCC(C(=O)N[C@@H](Cc4ccsc4)C(=O)N[C@@H](Cc4csc5ccccc45)C(=O)N[C@@H](C)C(N)=O)(CC3)NC(=O)[C@H](CC(C)C)NC(=O)[C@H](Cc3ccccc3)NC(=O)[C@H](C)NC(=O)[C@H](CCC(N)=O)NC(=O)[C@H](Cc3cccc(C(=O)O)c3)NC(=O)[C@H](CC(=O)O)NC1=O)NC(=O)[C@H](CC(C)(C)C)NC(=O)[C@H](CC(=O)O)NC2=O (some centres unmarked) [I-2593] is less than 300 nM?
1

----------
Quick reference: Solubility of the listed items.
- ASSAY TEXT: Solubility in PBS
- Type: physicochemical
- MEASUREMENT CONDITIONS: Solubility (uM)
Please make sure the unit comes right after the number.

COMPOUND	Solubility
CC(=O)N1CCC[C@]12CC=CCCCC1(CCCC=CCCCOC(=O)N3CC[C@@](C(=O)N[C@@H](Cc4ccccc4Cl)C(=O)N[C@@H](Cc4csc5ccccc45)C(=O)N[C@@H](CO)C(N)=O)(C3)NC(=O)[C@H](CC(N)=O)NC(=O)[C@H](Cc3ccccc3)NC(=O)[C@H](C)NC(=O)[C@H](C)NC(=O)[C@H](CC(=O)O)NC(=O)[C@H](CC(=O)O)NC1=O)NC(=O)[C@H](CC1CCCCC1)NC(=O)[C@H](CC(=O)O)NC2=O (some centres unmarked)	37 µM
CC(=O)N1CCC[C@]12CC=CCCCC1(CCCC=CCCCOC(=O)N3CC[C@@](C(=O)N[C@@H](Cc4ccsc4)C(=O)N[C@@H](Cc4csc5ccccc45)C(=O)N[C@@H](CCC(N)=O)C(N)=O)(C3)NC(=O)[C@H](CC(N)=O)NC(=O)[C@H](Cc3ccccc3)NC(=O)[C@H](C)NC(=O)[C@H](C)NC(=O)[C@H](CC(=O)O)NC(=O)[C@H](CC(=O)O)NC1=O)NC(=O)[C@H](CC(C)(C)C)NC(=O)C[C@H](CC(=O)O)NC2=O (some centres unmarked)	45 µM
CC(=O)N1CCC[C@]12CC=CCCCC1(CCCC=CCCCOC(=O)N3CC[C@@](C(=O)N[C@@H](Cc4ccsc4)C(=O)N[C@@H](Cc4csc5ccccc45)C(=O)N[C@@H](CCC(N)=O)C(N)=O)(C3)NC(=O)[C@H](Cc3ccccc3C(F)(F)F)NC(=O)[C@H](Cc3ccccc3)NC(=O)[C@H](C)NC(=O)[C@H](C)NC(=O)[C@H](CC(=O)O)NC(=O)[C@H](CC(=O)O)NC1=O)NC(=O)[C@H](CC(C)(C)C)NC(=O)[C@H](CC(=O)O)NC2=O (some centres unmarked)	12 µM
CC(=O)N1CCC[C@]12CC=CCCCC1(CCCC=CCCCOC(=O)N3CC[C@@](C(=O)N[C@@H](CC4CCCCC4)C(=O)N[C@@H](Cc4csc5ccccc45)C(=O)N[C@@H](CO)C(N)=O)(C3)NC(=O)[C@H](CO)NC(=O)[C@H](Cc3ccccc3)NC(=O)[C@H](C)NC(=O)[C@H](C)NC(=O)[C@H](CC(=O)O)NC(=O)[C@H](CC(=O)O)NC1=O)NC(=O)[C@H](CC(C)(C)C)NC(=O)[C@H](CC(=O)O)NC2=O (some centres unmarked)	47 µM

Consider the additional compound presented here.
Fill in: Solubility of CC(=O)N1CCC[C@]12CC=CCCCC1(CCCC=CCCCCCC[C@@](C)(C(=O)N[C@@H](Cc3ccccc3)C(=O)N[C@@H](Cc3csc4ccccc34)C(=O)N[C@@H](CCC(N)=O)C(N)=O)NC(=O)[C@H](C)NC(=O)[C@H](Cc3ccc4ccccc4c3)NC(=O)[C@H](C)NC(=O)[C@H](C)NC(=O)[C@H](CC(=O)O)NC(=O)[C@H](CC(=O)O)NC1=O)NC(=O)[C@H](C)NC(=O)[C@H](CC(=O)O)NC2=O (some centres unmarked) is ___
47 µM
